// data source = paper PMC2606940

Please respond with reported IC50 for every item in the list.
Molecular target: wild-type CLC-0 (E166, C212S background) (Torpedo marmorata, UniProt P21564, C212S)
Assay type: cell-based
Details: read-out: Apparent affinity (K1/2); −140 mV
The reply should contain only the number, in µM.

Value lookup for IC50; key = O=C(O)COc1ccc(Cl)cc1 [CPA, p-chlorophenoxy acetate]
1170

Value lookup for IC50; key = CCCCCCCC(=O)O [octanoate]
260

###

Target: CLC-0 E166N mutant (Torpedo marmorata, UniProt P21564, C212S/E166N)
Sequence (P21564 1-805 E166N/C212S): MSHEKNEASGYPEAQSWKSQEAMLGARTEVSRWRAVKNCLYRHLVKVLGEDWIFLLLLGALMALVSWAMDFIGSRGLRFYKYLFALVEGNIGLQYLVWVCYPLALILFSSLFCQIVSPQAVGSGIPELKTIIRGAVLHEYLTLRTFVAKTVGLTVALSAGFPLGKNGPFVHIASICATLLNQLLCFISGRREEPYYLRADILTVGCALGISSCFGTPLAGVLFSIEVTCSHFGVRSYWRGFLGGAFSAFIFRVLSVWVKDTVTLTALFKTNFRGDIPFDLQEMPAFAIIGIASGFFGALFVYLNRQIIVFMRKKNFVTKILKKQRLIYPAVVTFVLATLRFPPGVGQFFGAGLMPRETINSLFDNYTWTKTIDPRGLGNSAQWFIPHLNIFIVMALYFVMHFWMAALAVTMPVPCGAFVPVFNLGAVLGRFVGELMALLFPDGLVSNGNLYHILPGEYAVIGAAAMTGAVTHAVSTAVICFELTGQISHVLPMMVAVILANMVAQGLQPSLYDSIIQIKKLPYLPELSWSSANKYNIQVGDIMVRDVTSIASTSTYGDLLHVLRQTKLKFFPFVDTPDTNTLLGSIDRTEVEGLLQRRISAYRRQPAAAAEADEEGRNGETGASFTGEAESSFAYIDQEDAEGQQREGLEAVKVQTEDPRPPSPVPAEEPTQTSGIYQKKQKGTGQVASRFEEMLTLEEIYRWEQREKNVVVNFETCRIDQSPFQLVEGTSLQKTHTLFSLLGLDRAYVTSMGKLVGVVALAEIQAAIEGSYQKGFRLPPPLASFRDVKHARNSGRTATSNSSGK
Type: cell-based
Settings: read-out: Apparent affinity (K1/2); −60 mV
Please respond with reported IC50 for every item in the list.
The answer should read as a number with its unit following.

Write down the reported IC50 of O=C(O)COc1ccc(Cl)cc1 [CPA, p-chlorophenoxy acetate] , test system: CLC-0 E166N mutant (Torpedo marmorata, UniProt P21564, C212S/E166N).
5.78 mM

Write down the reported IC50 of CCCCCCCC(=O)O [octanoate] , test system: CLC-0 E166N mutant (Torpedo marmorata, UniProt P21564, C212S/E166N).
2.55 mM

###

Target: CLC-0 E166C/K519E mutant (E127/K519E) (Torpedo marmorata, UniProt P21564, C212S/E166C/K519E)
Format: cell-based
Details: read-out: Apparent affinity (K1/2); −40 mV
QUANTITY: pIC50
Remember the convention: pIC50 equals -log10 of concentration in molar.

Value lookup for pIC50; key = O=C(O)COc1ccc(Cl)cc1 [CPA, p-chlorophenoxy acetate]
3.14

###

Biological target: CLC-0 E166C/E127Q/K519E mutant (Torpedo marmorata, UniProt P21564, C212S/E127Q/E166C/K519E)
Format: cell-based
Conditions: read-out: Apparent affinity (K1/2); −160 mV
QUANTITY: pIC50
Remember the convention: pIC50 equals -log10 of concentration in molar.

Value lookup for pIC50; key = O=C(O)COc1ccc(Cl)cc1 [CPA, p-chlorophenoxy acetate]
4.36
